Origin of measurements: patent US20230233569A1

target or system: KRAS G12S (Homo sapiens, UniProt P01116+P62937, G12S)
Sequence (P01116 1-169 isoform P01116-2 G12S limits assumed): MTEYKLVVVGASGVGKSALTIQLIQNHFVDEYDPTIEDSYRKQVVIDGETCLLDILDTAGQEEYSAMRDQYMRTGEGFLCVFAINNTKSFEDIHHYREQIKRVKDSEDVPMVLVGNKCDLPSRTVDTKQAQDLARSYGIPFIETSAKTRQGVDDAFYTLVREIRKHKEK
Sequence (P62937 whole entry): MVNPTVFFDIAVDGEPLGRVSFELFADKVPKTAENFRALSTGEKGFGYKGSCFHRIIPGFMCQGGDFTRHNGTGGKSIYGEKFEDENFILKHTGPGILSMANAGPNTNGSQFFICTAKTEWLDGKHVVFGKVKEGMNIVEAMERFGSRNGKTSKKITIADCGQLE
method summary: Ras-Raf disruption / FRET / MOA assay (BRAF RBD)
Type: biochemical
conditions: KRAS G12S FRET data IC50, Ras-Raf disruption, with Cyclophilin A
pIC50: −log10 of the molar value.
Provide the reported pIC50 of each item.

According to the records, this molecule CCn1c(-c2cccnc2[C@H](C)OC)c2c3cc(ccc31)-c1cc(O)cc(c1)C[C@H](NC(=O)[C@H](C1CCCC1)N(C)C(=O)CN(C)C(=O)[C@H]1N[C@H]1C1(OC)CC1)C(=O)N1CCC[C@H](N1)C(=O)OCC(C)(C)C2 (single isomer, unassigned) [Example 322] displays pIC50 of 7.00 to 8.00

According to the records, this molecule CCn1c(-c2cccnc2[C@H](C)OC)c2c3cc(ccc31)-c1cccc(c1)C[C@H](NC(=O)[C@H](C(C)C)N(C)C(=O)CN(C)C(=O)[C@H]1CN1)C(=O)N1CCC[C@H](N1)C(=O)OCC(C)(C)C2 [Example 107] displays pIC50 of 5.00 to 6.00

According to the records, this molecule CCn1c(-c2cccnc2[C@H](C)OC)c2c3cc(ccc31)-c1cc(O)cc(c1)C[C@H](NC(=O)[C@H](C(C)C)N(C)C(=O)CN(C)C(=O)[C@@H]1CN1CC1COC1)C(=O)N1CCC[C@H](N1)C(=O)OCC(C)(C)C2 (some centres unmarked) [Example 278] displays pIC50 of 7.00 to 8.00

According to the records, this molecule CCn1c(-c2cccnc2[C@H](C)OC)c2c3cc(ccc31)-c1cc(O)cc(c1)C[C@H](NC(=O)[C@H](C(C)C)N(C)C(=O)CN(C)C(=O)[C@@H]1CN1CCO)C(=O)N1CCC[C@H](N1)C(=O)OCC(C)(C)C2 (some centres unmarked) [Example 162] displays pIC50 of 7.00 to 8.00

According to the records, this molecule CCn1c(-c2cccnc2[C@H](C)OC)c2c3cc(ccc31)-c1cc(O)cc(c1)C[C@H](NC(=O)[C@H](C(C)C)N(C)C(=O)CN(C)C(=O)[C@H]1CN1CCCC#N)C(=O)N1CCC[C@H](N1)C(=O)OCC(C)(C)C2 (some centres unmarked) [Example 273] displays pIC50 of 7.00 to 8.00

According to the records, this molecule CCn1c(-c2cccnc2[C@H](C)OC)c2c3cc(ccc31)-c1cc(O)cc(c1)C[C@H](NC(=O)[C@H](C(C)C)N(C)C(=O)[C@H]1CC[C@@H](C)N1C(=O)[C@@H]1CN1)C(=O)N1CCC[C@H](N1)C(=O)OCC(C)(C)C2 [Example 153] displays pIC50 of 6.00 to 7.00

According to the records, this molecule CCn1c(-c2cccnc2[C@H](C)OC)c2c3cc(ccc31)-c1cc(O)cc(c1)C[C@H](NC(=O)[C@H](C(C)C)N(C)C(=O)CN(C)C(=O)[C@@H]1CN1CC(=O)N(C)C)C(=O)N1CCC[C@H](N1)C(=O)OCC(C)(C)C2 (some centres unmarked) [Example 271] displays pIC50 of 7.00 to 8.00

According to the records, this molecule CCn1c(-c2cccnc2[C@H](C)OC)c2c3cc(ccc31)-c1cc(O)cc(c1)C[C@H](NC(=O)[C@H](C(C)C)N(C)C(=O)CN(C)C(=O)[C@H]1CN1CCCN1CCOC1=O)C(=O)N1CCC[C@H](N1)C(=O)OCC(C)(C)C2 (some centres unmarked) [Example 272] displays pIC50 of 7.00 to 8.00
